Measured values drawn from the supplement of paper PMC13380429 for this set.

# Test system: HepG2
# assay name: cell viability relative to DMSO; higher = less toxic
# condition set: 72 h; 10 nM
For each entry below, report its cell viability value.
Give bare numbers, in %.

Below are worked cases with known answers.
| compound | unit annotation | cell viability |
| --- | --- | --- |
| OCc1cccnc1 [nicotinyl-alcohol-tartrate] | % | 102 |
| CC(Oc1c(Cl)cccc1Cl)C1=NCCN1 (centres undefined) [lofexidine] | % | 105 |
| CN1CC[C@@]2(C)c3cc(O)ccc3N(C)[C@@H]12 [eseroline-(-)] | % | 103 |

Fill in cell viability for each of the 8 compounds listed.
1. O=C(NC(=O)c1c(F)cccc1F)Nc1cc(Cl)c(OC(F)(F)C(F)C(F)(F)F)cc1Cl (centres undefined) [lufenuron]
2. C[C@@H](O)[C@H]1C(=O)N2C(C(=O)O)=C(S[C@@H]3CN[C@H](C(=O)Nc4cccc(C(=O)O)c4)C3)[C@H](C)[C@H]12 [ertapenem]
3. O=C(O)[C@H](Cc1ccc(Nc2nccc3ccncc23)cc1)NC1=C(Br)C(=O)C12CCCCC2 [CT-7758]
4. COC(=O)Nc1nc2cc([S+]([O-])c3ccccc3)ccc2[nH]1 (centres undefined) [oxfendazole]
5. C[C@]12CC[C@@H]3c4ccc(OC(=O)c5ccccc5)cc4CC[C@H]3[C@@H]1CC[C@@H]2O [estradiol-benzoate]
6. COc1ccc2c(c1)CN(C)CC2c1ccc(Cl)c(Cl)c1 (centres undefined) [diclofensine]
7. NCCCCCNCC12CC3CC(CC(C3)C1)C2 [IEM1754]
8. O=C(N[C@H]1CCN(C(=O)c2cc(C(F)(F)F)cc(C(F)(F)F)c2)[C@H](Cc2ccc(Cl)cc2)C1)c1ccnc2ccccc12 [AV-608]

94.3
97.4
95.4
92.5
118
98.8
89.3
103

Fill in cell viability for each of the 4 compounds listed.
1. CC1=C(C(=O)Nc2cc3cn[nH]c3cc2F)C(c2ccc(C(F)(F)F)cc2)CC(=O)N1 (centres undefined)
2. C[C@@H](Oc1ccc(Cl)cc1)c1ccnc2ncnn12
3. CC(=O)O[C@]1(C(C)=O)CC[C@H]2[C@@H]3C[C@H](C)C4=CC(=O)C=C[C@]4(C)[C@@]3(F)[C@@H](O)C[C@@]21C [fluorometholone-acetate]
4. CCN(CC)CCNC(=O)c1cc(Br)c(N)cc1OC [bromopride]

1. 103
2. 102
3. 95.6
4. 102

Fill in cell viability for each of the 7 compounds listed.
1. CC(C)c1noc(N2CCC(COc3ccc(-c4ccc(S(C)(=O)=O)cc4)nc3)CC2)n1
2. CC(C)(C)NCC(O)c1ccc(O)c(CO)c1 (centres undefined) [albuterol]
3. O=C(O)[C@H](Cc1c[nH]c2ccccc12)N1C(=O)c2ccccc2C1=O [RG108]
4. N=C(N)N [guanidine]
5. Cc1[nH]c(/C=C2\C(=O)Nc3ccccc32)c(C)c1CCC(=O)O [orantinib]
6. CC(=O)NCCCCCC(=O)O [acexamic-acid]
7. Cc1nc2n(c(=O)c1CCN1CCC(c3noc4cc(F)ccc34)CC1)CCCC2O (centres undefined) [paliperidone]

1. 106
2. 96.1
3. 109
4. 117
5. 103
6. 105
7. 104

Fill in cell viability for each of the 7 compounds listed.
1. C=CC(C)(C)c1cc(/C=C/C(=O)c2ccc(O)cc2)c(OC)cc1O [licochalcone-A]
2. N#Cc1ccc(N(Cc2ccc(Br)cc2)n2cnnc2)cc1 [YM-511]
3. CCn1c(-c2nonc2N)nc2c(C#CC(C)(C)O)ncc(OC[C@H]3CCCNC3)c21
4. Nc1ccc(C(=O)O)c(O)c1 [aminosalicylate]
5. c1ccc2sc(N3CCN(Cc4ccc5c(c4)OCO5)CC3)nc2c1 [2-[1-(4-piperonyl)piperazinyl]benzothiazole]
6. CC(C)C[C@@H](N)C(=O)N[C@H]1C(=O)N[C@@H](CC(N)=O)C(=O)N[C@H]2C(=O)N[C@H]3C(=O)N[C@H](C(=O)N[C@H](C(=O)O)c4cc(O)cc(O)c4-c4cc3ccc4O)[C@H](O)c3ccc(c(Cl)c3)Oc3cc2cc(c3O[C@@H]2O[C@H](CO)[C@@H](O)[C@H](O)[C@H]2O[C@H]2C[C@](C)(N)[C@H](O)[C@H](C)O2)Oc2ccc(cc2Cl)[C@H]1O [norvancomycin]
7. COc1cccc(CCc2ccccc2OCC[C@@H]2C[C@@H](O)CN2C)c1

[100, 102, 98.1, 102, 108, 95.8, 91.3]
